Tested on: HBsAg
METHOD: HBsAg assay: inhibition of HBsAg in HepG2.2.15 cells (chemiluminescence immunoassay of supernatant)
Format: cell-based, hepatitis B virus
PROTOCOL_CONDITIONS: read-out: sAg EC50; HepG2.2.15 cells; HBsAg in supernatant at day 6 after exposure to compound; 0.5% DMSO
Description: Inhibition of HBsAg was determined in HepG2.2.15 cells. Cells were maintained in culture medium containing 10% fetal calf serum, […], Glutamine, penicillin/streptomycin. Cells were seeded in 96-well collagen-coated plate at a density of 30,000 cells/well. Serially diluted compounds were added to cells next day at the final DMSO concentration of 0.5%. Cells were incubated with compounds for 2-3 days, after which medium was removed. […]
pEC50: −log10 of the molar value.
Decide by pEC50: equal to or exceeding 6 means Satisfied, less means Not satisfied.

INSERT INTO results (compound, assigned_label) VALUES
  ('COc1cc(C2CC2c2cnc(-c3ncccn3)nc2C2CCCCC2)ccc1F (single isomer, unassigned) [Example 78]', 'Not satisfied'),
  ('COc1cc(C2CC2c2cnc(-c3ncccn3)nc2)c(-c2ccccc2)cc1Cl (single isomer, unassigned) [Example 159]', 'Not satisfied'),
  ('COc1cc(C2CC2c2cnc(-c3ncccn3)nc2)c(C)cc1Cl (single isomer, unassigned) [Example 51]', 'Satisfied'),
  ('COc1cc(C2CC2c2ccc(-c3ncccn3)nn2)ccc1F (single isomer, unassigned) [Example 192]', 'Not satisfied');

Decide: pEC50 of COc1c(Cl)ccc(C2CC2c2cnc(-c3ncccn3)nc2)c1C (single isomer, unassigned) [Example 71] >= 6?
Satisfied

Again, but for COCCCOc1cc(F)c(Cl)cc1C1CC1c1cnc(-c2ncccn2)nc1 (single isomer, unassigned) [Example 155]
Not satisfied

Here is the next compound: O=C1CCCN1c1cc(C2CC2c2cnc(-c3ncccn3)nc2)ccc1F (single isomer, unassigned) [Example 197]
Not satisfied

Entry COCCCn1cc2c(F)cc(C3CC3c3cnc(-c4ncccn4)nc3)cc2n1 (single isomer, unassigned) [Example 268] please
Satisfied

Next compound up: OC1CN(c2cc(C3CC3c3cnc(-c4ncccn4)nc3)ccc2F)C1 (single isomer, unassigned) [Example 53]
Satisfied

Again, but for Fc1ccc(C2CC2c2cnc(-c3ncccn3)nc2)cc1OC(F)(F)F (single isomer, unassigned) [Example 39]
Not satisfied

Note, next up: CNC(=O)c1cc(C2CC2c2cnc(-c3ncccn3)nc2)ccc1Cl (single isomer, unassigned) [Example 202]
Not satisfied

Same question, COCCOc1cc(C2CC2c2cnc(-c3ncccn3)nc2)cc(F)c1F (single isomer, unassigned) [Example 135] this time
Satisfied

Entry COc1cc(C2CC2c2cnc(-c3ncccn3)nc2OC)ccc1F (single isomer, unassigned) [Example 81] please
Satisfied

Now the compound COC1CN(c2cc(C3CC3c3cnc(-c4ncccn4)nc3)ccc2F)C1 (single isomer, unassigned) [Example 47]
Satisfied

Further, for O=C1CCCN1c1cc(C2CC2c2cnc(-c3ncccn3)nc2)ccc1F (single isomer, unassigned) [Example 198] ?
Satisfied

Entry to check: COCCOc1cc(C2CC2c2cnc(-c3ncccn3)nc2)cc(F)c1F (single isomer, unassigned) [Example 134]
Satisfied

Proceed to COc1cc(F)cc(C2CC2c2cnc(-c3ncccn3)nc2)c1 (single isomer, unassigned) [Example 113]
Satisfied

Try Cc1cn(-c2cc(C3CC3c3cnc(-c4ncccn4)nc3)cc(F)c2F)cn1 (single isomer, unassigned) [Example 262] next.
Satisfied

Try this compound next: CCCc1cc(F)c(OC)cc1C1CC1c1cnc(-c2ncccn2)nc1 (single isomer, unassigned) [Example 38]
Satisfied

Would you mind doing Fc1ccc(C2CC2c2cnc(-c3ncccn3)nc2)cc1N1CCCCC1 (single isomer, unassigned) [Example 195] as well?
Not satisfied

Do the same for Fc1cc(C2CC2c2cnc(-c3ncccn3)nc2)cc(N2CCC3(COC3)C2)c1F (single isomer, unassigned) [Example 223] please
Satisfied

----------
System: HBsAg
METHOD: HBsAg assay: inhibition of HBsAg in HepG2.2.15 cells (chemiluminescence immunoassay of supernatant)
Format: cell-based, hepatitis B virus
PROTOCOL_CONDITIONS: read-out: sAg EC50; HepG2.2.15 cells; HBsAg in supernatant at day 6 after exposure to compound; 0.5% DMSO
PROPERTY: EC50 (nM)
Use nM as the unit, but write only the number.

INSERT INTO measurements (compound, meas_value) VALUES
  ('COc1cc(C2CC2c2cnc(-c3ncccn3)nc2)c(C)cc1Cl (single isomer, unassigned) [Example 52]', 1000);

Using the record for COc1cc(C2CC2c2cnc(-c3ncccn3)nc2C2CCCCC2)ccc1F (single isomer, unassigned) [Example 79] , report its EC50.
220

Also Fc1ccc(C2CC2c2cnc(-c3ncccn3)nc2)cc1OC(F)F (single isomer, unassigned) [Example 185] , if possible.
120

What do we get for Fc1cc(C2CC2c2cnc(-c3ncccn3)nc2)cc(N2CCCC2)c1Cl (single isomer, unassigned) ?
14

Further, for COc1c(F)ccc(C2CC2c2cnc(-c3ncccn3)nc2)c1F (single isomer, unassigned) [Example 189] ?
120

Field entry: COc1cc(C2CC2c2cnc(-c3ncccn3)nc2)cc(OC)c1F (single isomer, unassigned) [Example 147]
10000

Request: CN1CC[C@H](Nc2cc(C3CC3c3cnc(-c4ncccn4)nc3)cc(F)c2F)C1 (single isomer, unassigned) [Example 228]
15000

Next compound up: Fc1ccc(C2CC2c2cnc(-c3ncccn3)nc2)cc1OC(F)F (single isomer, unassigned) [Example 186]
1600

For Fc1cc(C2CC2c2cnc(-c3ncccn3)nc2)cc(-n2ccnc2)c1F (single isomer, unassigned) [Example 181] then?
390

Would you kindly repeat that for Fc1ccc(C2CC2c2cnc(-c3ncccn3)nc2)cc1N1CCC1 (single isomer, unassigned) [Example 83] ?
35

Now this one: Fc1cc(C2CC2c2cnc(-c3ncccn3)nc2)cc(O[C@@H]2CCOC2)c1F (single isomer, unassigned) [Example 248]
1000

----------
Test system: HBsAg
METHOD: HBsAg assay: inhibition of HBsAg in HepG2.2.15 cells (chemiluminescence immunoassay of supernatant)
Type: cell-based, hepatitis B virus
PROTOCOL_CONDITIONS: read-out: sAg EC50; HepG2.2.15 cells; HBsAg in supernatant at day 6 after exposure to compound; 0.5% DMSO
PROPERTY: pEC50
Just the number, please; pEC50 means minus log10 of the concentration in mol/L.

Sample answers from the record:
INSERT INTO measurements (compound, property, meas_value) VALUES
  ('COc1cc(F)ccc1C1CC1c1cnc(-c2ncccn2)nc1 (single isomer, unassigned) [Example 9]', 'pEC50', 7.07),
  ('COc1cc(C2CC2c2cnc(-c3ncccn3)nc2OC)ccc1F (single isomer, unassigned) [Example 80]', 'pEC50', 7.00),
  ('COc1cc(C2CC2c2cnc(-c3ncccn3)nc2)ccc1F (single isomer, unassigned) [Example 11]', 'pEC50', 6.14),
  ('COc1cc(C2CC2c2cnc(-c3ncccn3)nc2)ccc1Cl (single isomer, unassigned) [Example 34]', 'pEC50', 6.82),
  ('CC1(C)CN(c2cc(C3CC3c3cnc(-c4ncccn4)nc3)cc(F)c2F)C1 (single isomer, unassigned) [Example 138]', 'pEC50', 6.00);

# context switch: different compound, same pEC50
Entry Clc1ccc(C2CC2c2cnc(-c3ncccn3)nc2)cc1N1CCCC1 (single isomer, unassigned) [Example 199] : reported pEC50 = ?
6.85

----------
# pEC50 values compiled below
Tested on: HBsAg
METHOD: HBsAg assay: inhibition of HBsAg in HepG2.2.15 cells (chemiluminescence immunoassay of supernatant)
Assay type: cell-based, hepatitis B virus
PROTOCOL_CONDITIONS: read-out: sAg EC50; HepG2.2.15 cells; HBsAg in supernatant at day 6 after exposure to compound; 0.5% DMSO
Keep it numeric: pEC50 is minus log10 of the concentration in mol/L.

Reference set (3 entries):
INSERT INTO results (compound, meas_value) VALUES
  ('CO[C@H]1CCN(c2cc(C3CC3c3cnc(-c4ncccn4)nc3)cc(F)c2F)C1 (single isomer, unassigned) [Example 102]', 7.54),
  ('Fc1cc(C2CC2c2cnc(-c3ncccn3)nc2)cc(F)c1F (single isomer, unassigned) [Example 162]', 6.80),
  ('COc1cc(C2CC2c2cnc(-c3ncccn3)nc2)cc(C)c1F (single isomer, unassigned) [Example 150]', 6.00);

For O[C@@H]1CCN(c2cc(C3CC3c3cnc(-c4ncccn4)nc3)ccc2F)C1 (single isomer, unassigned) , what is its reported pEC50?
6.57

Please do the same for CNC(=O)c1cc(C2CC2c2cnc(-c3ncccn3)nc2)ccc1Cl (single isomer, unassigned) [Example 201] as well.
5.05

Item: O[C@@H]1CCN(c2cc(C3CC3c3cnc(-c4ncccn4)nc3)cc(Cl)c2F)C1 (single isomer, unassigned)
6.96

Do the same for CC1(C)CN(c2cc(C3CC3c3cnc(-c4ncccn4)nc3)cc(F)c2F)C1 (single isomer, unassigned) [Example 139] please
7.06
